# Tested on: HL-60 cells
# experiment_summary: Cell viability, trypan blue exclusion, HL-60
# Format: cell-based
# condition_details: Homo sapiens; HL-60, trypan blue exclusion, 24 hours; read-out: IC50, inhibition of cell viability
pIC50: −log10 of the molar value.
recorded_endpoint: pIC50

Prompt line: Requested read-out: pIC50. Entry: Brc1cccc[n+]1-c1ccc2cc(-[n+]3ccccc3Br)ccc2c1
Response line: ≤ 4.30
